Tested on: L1210 leukemia ip in BDF1 mice, survival T/C
ASSAY REMARKS: NCI In Vivo Anticancer Drug Screen. Data for tumor model L1210 Leukemia (intraperitoneal) in B6D2F1 (BDF1) mice
CONDITION NOTES: endpoint: mean survival time; dose: 100.0 mg/kg/injection; schedule: Q01DX001 (ip); vehicle: saline with Tween-80; higher = longer survival
Inconclusive results and toxic doses are left out.
ATTRIBUTE MEASURED: T/C

# count of solved cases: 5
CC(=O)OC1/C=C/C(C)=C/CC(O)/C=C/C(C)=C/C(NC(=O)C(C)=O)C2(C)C(=O)OC(C1)C(C)C2=O (stereo unspecified); 97 % of control
CC(c1ccccc1)C(O)c1ccccc1 (stereo unspecified); 97 % of control
CCCCCCCC(=N)OCC; 94 % of control
CN(C)c1nc(N(C)C)nc(N(C)C)n1; 98 % of control
CNC(=O)NC1ON=C(c2ccccc2)C1C(=O)NC (stereo unspecified); 98 % of control

The compound `NC(=O)C(O)(c1ccccc1)c1ccccc1` , when measured on L1210 leukemia ip in BDF1 mice, survival T/C, yielded T/C of 100 % of control
